Molecular target: wild type human RORγt ligand binding domain (RORyt LBD) (Homo sapiens)
Construct: His-tag (N); TurboTEV protease cleavage site (ENLYFQG) (N)
Sequence (P51449 258-518): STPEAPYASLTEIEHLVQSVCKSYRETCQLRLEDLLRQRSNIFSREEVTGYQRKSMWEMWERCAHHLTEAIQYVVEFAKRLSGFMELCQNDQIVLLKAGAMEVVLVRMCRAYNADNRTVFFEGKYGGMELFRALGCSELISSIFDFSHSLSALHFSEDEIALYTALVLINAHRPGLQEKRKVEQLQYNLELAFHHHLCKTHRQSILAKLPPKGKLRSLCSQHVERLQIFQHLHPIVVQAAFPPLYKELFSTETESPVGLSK
Experiment: RORγt ThermoFluor assay (thermal shift, binding affinity KD)
pKd: −log10 of the molar value.
The label depends only on pKd: yes (1) if it is at least 8, no (0) if it is smaller.

Field: example entries. Status: answers known.
QUERY: Record COc1nc2ccc(C(O)(c3ccccc3)C3CCN(C(C)=O)CC3)cc2c(Cl)c1Cc1ccc(-n2ccnc2)cc1 (stereo not shown) [Example 16b] ; criterion: pKd no lower than 8. Met?
RESULT: no (0)

QUERY: Please indicate if the recorded pKd for COCCOc1nc2ccc(C(O)(c3ccc(Cl)cc3)c3cncn3C)cc2c(Cl)c1Cc1ccc(-n2cccn2)cc1 (stereo not shown) meets or exceeds 8.
RESULT: no (0)

QUERY: Decide: pKd of COc1nc2ccc(C(O)(c3ccc(F)cc3)C3CCN(C(C)=O)CC3)cc2c(Cl)c1Cc1ccc(-n2cccn2)cc1 (stereo not shown) [Example 157a] >= 8?
RESULT: yes (1)

QUERY: Threshold query (pKd >= 8) on `COc1nc2ccc(C(O)(c3cncn3C)c3cncn3C)cc2c(Cl)c1Cc1ccc(C(F)(F)F)cc1`
RESULT: yes (1)

New cases:
QUERY: Has COc1nc2ccc(C(O)(c3ccc(C#N)cc3)c3cncn3C)cc2c(C#N)c1Cc1ccc(-n2cncn2)cc1 (single isomer, unassigned) [Example 15b] a recorded pKd greater than or equal to 8?
RESULT: no (0)
